Listing of recorded GI50 by entry.
# System: HOP-92
# ASSAY NOTES: NCI tumour cell line growth inhibition, 48 h
Calls of active or inactive are those of the source. Rule as the data show it: active = GI50 up to about 1.1 µM and inactive = higher.

Here are 7 compounds together with their reported answers.
In: Query the reported GI50 for HOP-92; item: CC(=O)N1NC(c2ccccc2)=CC(=O)/C1=C/C(=O)c1ccccc1
Out: 34.5 µM (inactive)

In: What measured GI50 is associated with NC(=S)/N=C(/c1nc2ccc(Cl)cc2nc1O)C(O)c1ccccc1Cl (stereo not drawn) on HOP-92?
Out: > 100 µM (inactive)

In: Notebook entry, HOP-92 assay: GI50 of Cc1cc(C)nc(NS(=O)(=O)c2ccc(NC(=O)c3cccc4c(Nc5ccc(S(N)(=O)=O)cc5)c5ccccc5nc34)cc2)n1 = ?
Out: 20.7 µM (inactive)

In: Under HOP-92: GI50 value of CC(=O)NC1C(OCc2ccccc2)OC(CO)C(O)C1OCC(=O)N[C@@H](C)C(=O)N[C@H](CCC(=O)NCCNCCNc1c2ccccc2nc2cccc([N+](=O)[O-])c12)C(N)=O (stereo partly drawn) ?
Out: 20.7 µM (inactive)

In: Tell me reported GI50 for COc1cc(CNC(=O)CCCCCCCCCCSC#N)ccc1O , tested with HOP-92.
Out: 17.1 µM (inactive)

In: Item CC1(C)[C@@H](Cn2cnc3c(O)nc(N)nc32)CC[C@@]1(C)CO with HOP-92 - GI50?
Out: > 100 µM (inactive)

In: Find the measured GI50: item O=C(Nc1ccc(Cl)c(C(F)(F)F)c1)C(=O)C(C(=O)/C=C/c1ccccc1)C1OC(=O)c2ccccc21 (stereo not drawn) , target or system HOP-92.
Out: > 100 µM (inactive)

Please find the next compound below.
In: What is its GI50 for HOP-92? Entry: C=C1[C@@H]([C@@]2(C)C=CC(=O)C(C)(C)[C@@H]2CC(=O)OC)CC[C@@]2(C)[C@H](c3ccoc3)OC(=O)[C@H]3O[C@]132
Out: > 100 µM (inactive)

---

# Tested on: CCRF-CEM
# ASSAY NOTES: NCI tumour cell line growth inhibition, 48 h
Active and inactive are the calls of the source. No stated cut-off is given here; in the data, active = GI50 up to about 1.1 µM and inactive = higher.
Pick one and only one: active, inactive

In: Per the records of this test, what outcome belongs to CCCCCCCC1(c2ccc(N)cc2)CCC(=O)NC1=O (stereo not given) ?
Out: inactive

In: Dear all, I need the recorded test outcome for O=C(O)c1cc(O)nc(S)n1 , thank you.
Out: inactive

In: # outcome recorded in this test, key = CC(=O)O[C@H]1[C@@H](N2CCN(C)CC2)C[C@H]2[C@@H]3CC=C4C[C@@H](N5CCCC5)CC[C@]4(C)[C@H]3CC[C@@]21C
Out: inactive

In: What is the recorded call for this molecule in the test? O=C1c2cc3c(cc2CC12Cc1ccccc1C2)CCC3
Out: inactive

In: Dear all, I need the recorded test outcome for Cc1ccc2ccc3ccc(C)nc3c2n1 , thank you.
Out: active

In: Per the records of this test, what outcome belongs to Cc1ccc(S(=O)(=O)N/N=C/C(=C/c2ccc(Cl)cc2)CC(/C=N/NS(=O)(=O)c2ccc(C)cc2)=C\c2ccc(Cl)cc2)cc1 ?
Out: inactive

Field: next molecule
In: Recorded call for O=C(CNC(=O)c1ccccc1)Oc1c(Cl)c(Cl)c(Cl)c(Cl)c1Cl ?
Out: inactive

Attribution: ChEMBL document CHEMBL1201862
